experiment: NCI Yeast Anticancer Drug Screen. Data for the rad50 strain (AID 155);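 further: 0% = growth of vehicle-only cultures of the same strain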; conditions: S. cerevisiae rad50 strain growth inhibition; at 50.0 µM
Compounds without any hit were thinned out: in the full panel of roughly 79,000, 15% have a hit. The source made the active and inactive calls. No stated cut-off is given here; in the data, active means growth inhibition above about 70%; inactive means the rest.
Possible outcomes: 1 (active), -1 (inactive)

O=C(Nc1c(Cl)cc([N+](=O)[O-])cc1Cl)/C(=N\Nc1cccc(Cl)c1)c1c(O)c2ccccc2oc1=O -1
COc1ccc(C(=O)Nc2ccccc2OC)cc1 -1
N#Cc1sc2c(c1OC(=O)c1ccc(Cl)cc1)c(=O)n(-c1ccccc1)c(=S)n2-c1ccccc1 -1
COc1ccc(/C=C2\CN(C)C/C(=C\c3ccc(OC)cc3)C2=O)cc1 -1
O=C1C=CC(=O)C(c2ccc(Cl)cc2)=C1 1
O=C1Oc2ccccc2C(=O)/C1=C/N1C(=O)/C(=C/c2ccc3c(c2)OCO3)SC1=S -1
CCCC/C=C(/CCCNCCCC)[Si](C)(C)C 1
